Data credit: paper PMC12406652

Assay: Plasma pharmacokinetics on Day 10 after multiple doses of LED-E q8h (VNRX-7145-101 Part 2, VNRX-7145-102 Part 2)
Assay type: in vivo, human
Settings: human, plasma, oral, 300 mg, Day 10, LED-E 300 mg q8h; plasma; geometric mean (CV %); read-out: t1/2 (converted)

MOLECULE	half-life
CCC(=O)N[C@H]1Cc2cccc(C(=O)OCOC(=O)C(CC)CC)c2OB1O [Ledaborbactam etzadroxil]	6.75 h
CCC(=O)N[C@H]1Cc2cccc(C(=O)O)c2OB1O [Ledaborbactam, ledaborbactam]	11.3 h

---

Assay: Plasma pharmacokinetics on Day 10 after multiple doses of LED-E q8h (VNRX-7145-101 Part 2, VNRX-7145-102 Part 2)
Type: in vivo, human
Conditions: human, plasma, oral, 150 mg, Day 10, LED-E 150 mg q8h; plasma; geometric mean (CV %); read-out: t1/2 (converted)
Catalogue of half-life values
READOUT LABEL: half-life (h)

CPD SMILES	QUANTITATIVE READOUT
CCC(=O)N[C@H]1Cc2cccc(C(=O)O)c2OB1O	11.4
CCC(=O)N[C@H]1Cc2cccc(C(=O)OCOC(=O)C(CC)CC)c2OB1O	4.78
